- measuredTarget: T1, human PD-1.Fc (human, UniProt Q15116 25-170, limits assumed)
- T1 construct: also called PD-1; Fc protein; PD-1.hFc; not shown: human IgG Fc fragment
- T1 sequence (Q15116 25-170 limits assumed): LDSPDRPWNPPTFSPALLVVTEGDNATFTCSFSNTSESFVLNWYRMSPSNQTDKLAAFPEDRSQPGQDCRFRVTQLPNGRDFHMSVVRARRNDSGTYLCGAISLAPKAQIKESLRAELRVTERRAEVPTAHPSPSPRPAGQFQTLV
- test: SPR, antibody captured on protein A, PD-1.Fc in flow
assayMetric: pKd
Just the number, please; pKd means minus log10 of the concentration in mol/L.

| binder | pKd |
| --- | --- |
| NB202 (Fc fusion, not shown: IgG4 constant region of vector pCDNA3.4-IgG4) heavy: EVQVVESGGGLVQAGGSLRLSCTASGDTRLASAMGWYRQAPGKERELVAAITNSGLTYYADSVEGRFTISRDSAKNTVYLQMNSLKPEDTAVYYCNAGAPPPGGLGYDESDYWGQGTQVTVSS | 9.48 |
| NB220 (Fc fusion, not shown: IgG4 constant region of vector pCDNA3.4-IgG4) heavy: QVQLQESGGGLLQAGDSLRLSCIVSGRTFSSYAIGWFRQAPGKEREFVAGINWSGRSQYYSESVKDRFTVSIDNAKNTVYLQMNSLKPEDTAVYYCAAERHLGVPTVRDDEYDDWGQGTQVTVSS | 9.66 |
| NB173 (Fc fusion, not shown: IgG4 constant region of vector pCDNA3.4-IgG4) heavy: QVQLQESGGGLVQAGGSLRLSCAASGRSFNSYAMGWFRQAPGKEREFVAAISQNGGTQGYAEAVKDRFTISRDNTNKVVALQMNSLKPEDTAAYYCAADGDASDISYAPPRDYEYDYWGQGTQVTVSS | 7.08 |

State the recorded pKd for this entry: NB171 (Fc fusion, not shown: IgG4 constant region of vector pCDNA3.4-IgG4) heavy: QVQLVESGGGLVQAGGSLRLSCAASGRTFSSYAMGWFRQALGKEREWIAGVSMSGRTTYYAAPVKDRFTISRDNAKNTVTLQMNSLKPEDTAVYYCAAGRAQAEIPIMRAQEYDSWGQGTQVTVSS
8.21
